pIC50: −log10 of the molar value.
The molecules below each have a reported pIC50 tested on Protein deacetylase HDAC6 (Homo sapiens); the values come from various publications.
Endpoint Label: pIC50

CS(=O)(=O)N(Cc1ccc(-c2nnc(C(F)(F)F)o2)cn1)c1cccc(Cl)c1 : 7.84
O=C(CSc1nc2cc(Cl)c3cccnc3c2o1)c1ccc(O)c(O)c1 : 4.77
NNC(=O)c1ccc(COc2ccccc2Br)cc1 : 4.79

P: COc1cc(/C=C/C(=O)c2ccc(OCCCCCC(=O)NO)cc2)cc(OC)c1OC
Q: CC1(C)Cc2ccccc2C2=C/C(=N/O)C(=O)N21
R: CS(=O)(=O)N(Cc1ccc(C(=O)NNC(=O)C(F)(F)F)cn1)c1cccc(Cl)c1
S: CCC(CC)(c1ccc(OCCCC(=O)NO)cc1)c1ccc(OCC(O)C(C)(C)C)c(C)n1 (stereo not shown)
# rank by pIC50, ascending (min first) The labels, placed in the requested order, form the answer.
Q, R, S, P
